Values were extracted from paper doi:10.1101/2024.08.19.608619.

Molecular target: NaV1.5 (Homo sapiens)
Sequence (Q14524 whole entry): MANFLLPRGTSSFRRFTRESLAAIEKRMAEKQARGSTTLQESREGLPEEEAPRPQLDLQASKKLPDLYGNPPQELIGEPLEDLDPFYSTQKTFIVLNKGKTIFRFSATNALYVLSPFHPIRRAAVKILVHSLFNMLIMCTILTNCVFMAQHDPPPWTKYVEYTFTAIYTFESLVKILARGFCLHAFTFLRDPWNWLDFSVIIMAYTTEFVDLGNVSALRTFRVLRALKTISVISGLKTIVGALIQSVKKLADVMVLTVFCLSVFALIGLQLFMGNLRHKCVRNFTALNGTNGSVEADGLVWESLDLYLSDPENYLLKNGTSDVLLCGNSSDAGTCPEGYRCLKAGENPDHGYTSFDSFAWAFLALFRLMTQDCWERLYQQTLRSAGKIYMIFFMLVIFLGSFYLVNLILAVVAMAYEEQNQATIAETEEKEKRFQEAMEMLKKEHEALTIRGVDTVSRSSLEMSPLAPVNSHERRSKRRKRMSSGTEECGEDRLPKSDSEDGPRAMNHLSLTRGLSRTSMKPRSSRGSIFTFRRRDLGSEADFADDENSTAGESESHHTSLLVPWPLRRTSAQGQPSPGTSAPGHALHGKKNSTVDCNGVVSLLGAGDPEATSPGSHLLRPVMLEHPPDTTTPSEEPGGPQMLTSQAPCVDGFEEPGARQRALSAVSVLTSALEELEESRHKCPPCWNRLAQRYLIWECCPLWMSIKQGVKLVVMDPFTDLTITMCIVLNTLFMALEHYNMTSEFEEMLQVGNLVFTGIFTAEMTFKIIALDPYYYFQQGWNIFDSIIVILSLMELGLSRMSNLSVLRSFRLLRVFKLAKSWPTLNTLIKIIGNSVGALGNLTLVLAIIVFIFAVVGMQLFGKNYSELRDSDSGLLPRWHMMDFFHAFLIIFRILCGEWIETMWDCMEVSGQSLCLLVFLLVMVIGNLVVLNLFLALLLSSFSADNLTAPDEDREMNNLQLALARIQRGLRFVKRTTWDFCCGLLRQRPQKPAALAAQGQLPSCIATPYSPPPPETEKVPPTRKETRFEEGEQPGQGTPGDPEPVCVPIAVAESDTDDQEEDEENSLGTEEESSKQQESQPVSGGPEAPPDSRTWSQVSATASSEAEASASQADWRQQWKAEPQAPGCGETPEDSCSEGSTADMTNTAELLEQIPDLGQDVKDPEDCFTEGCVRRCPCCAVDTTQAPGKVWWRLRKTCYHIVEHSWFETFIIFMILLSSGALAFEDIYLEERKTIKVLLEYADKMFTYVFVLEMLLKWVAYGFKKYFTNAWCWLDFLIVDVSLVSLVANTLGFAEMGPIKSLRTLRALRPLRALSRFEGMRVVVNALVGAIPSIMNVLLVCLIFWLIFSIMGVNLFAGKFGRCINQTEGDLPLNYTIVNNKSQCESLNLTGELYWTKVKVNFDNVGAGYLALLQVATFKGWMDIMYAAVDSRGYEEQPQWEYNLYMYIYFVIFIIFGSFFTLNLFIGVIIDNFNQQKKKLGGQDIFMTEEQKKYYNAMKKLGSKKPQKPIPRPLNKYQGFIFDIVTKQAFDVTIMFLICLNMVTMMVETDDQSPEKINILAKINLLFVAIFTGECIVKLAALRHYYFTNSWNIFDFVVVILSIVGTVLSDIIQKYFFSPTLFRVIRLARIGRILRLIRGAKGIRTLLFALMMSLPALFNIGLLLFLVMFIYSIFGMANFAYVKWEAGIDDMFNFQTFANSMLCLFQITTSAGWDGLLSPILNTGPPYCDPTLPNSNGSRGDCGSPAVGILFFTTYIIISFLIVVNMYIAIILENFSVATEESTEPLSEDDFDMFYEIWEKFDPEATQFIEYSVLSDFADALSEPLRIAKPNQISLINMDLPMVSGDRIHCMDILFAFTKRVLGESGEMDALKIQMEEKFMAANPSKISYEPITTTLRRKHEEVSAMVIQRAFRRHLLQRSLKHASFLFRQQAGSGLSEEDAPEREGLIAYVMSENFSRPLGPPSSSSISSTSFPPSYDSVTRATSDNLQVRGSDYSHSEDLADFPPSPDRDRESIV
Assay: In vitro NaV1.5 cardiotoxicity
Conditions: NaV1.5, use dependent block; top test concentration 30 uM
Readout: perc_inhibition_use_dep_block (%)
Response body: numeric value in %, unit text excluded.

Smi: CC(C)[C@H](Nc1ncnc2[nH]ccc12)c1ccc2c(c1)S(=O)(=O)CCC2
Readout number: 29.0

Problem: Data request, read-out perc_inhibition_use_dep_block, for CC(C)[C@@H](Nc1ncnc2[nH]c(-c3cnn(C)c3C#N)cc12)c1ccc2c(n1)OCCO2
Solution: 25.0

Problem: What do you get for CC(C)[C@H](Nc1ncnc2[nH]c(-c3cnn(C)c3C#N)cc12)c1ccc2c(n1)OCCO2 ?
Solution: 35.0

Problem: What do you get for COc1ccc([C@H](Cc2nnn[nH]2)NC(=O)c2ncnc3[nH]ccc23)cc1 ?
Solution: 8.0

====

Each entry below carries its recorded perc_inhibition_mean.
Biological target: SARS-CoV-2 nsp3-mac1 (Severe acute respiratory syndrome coronavirus 2)
Assay: biochemical
Format: biochemical
Details: SARS-CoV-2 nsp3 macrodomain TR-FRET single point, concentration 50.0 uM
Response body: numeric value in %, unit text excluded.

Some compounds with known perc_inhibition_mean results, for comparison:
Compound: Cc1nc(C)c(CC(=O)Nc2cnc3[nH]ncc3c2)c(=O)[nH]1
Assayed system: SARS-CoV-2 nsp3-mac1 (Severe acute respiratory syndrome coronavirus 2)
Units of measure: %
perc_inhibition_mean: 4.825
//
Compound: O=C(Nc1cnc2[nH]ncc2c1)c1ccncc1Cl
Assayed system: SARS-CoV-2 nsp3-mac1 (Severe acute respiratory syndrome coronavirus 2)
Units of measure: %
perc_inhibition_mean: -0.272
//
Compound: Cc1[nH]c2ncnc(NC(=O)C3CCC(F)(F)CC3)c2c1C
Assayed system: SARS-CoV-2 nsp3-mac1 (Severe acute respiratory syndrome coronavirus 2)
Units of measure: %
perc_inhibition_mean: 2.148
//
Compound: O=C(Cc1n[nH]c2c1CCCC2)Nc1cnc2[nH]ncc2c1
Assayed system: SARS-CoV-2 nsp3-mac1 (Severe acute respiratory syndrome coronavirus 2)
Units of measure: %
perc_inhibition_mean: -1.262
//
Compound: Cc1cccc(Cl)c1-n1sc(=O)n(CC2CC2)c1=O
Assayed system: SARS-CoV-2 nsp3-mac1 (Severe acute respiratory syndrome coronavirus 2)
Units of measure: %
perc_inhibition_mean: 51.933
//
Compound: Cc1ccc(S(=O)(=O)Nc2ccccc2F)cc1C(=O)Nc1cnc2[nH]ncc2c1
Assayed system: SARS-CoV-2 nsp3-mac1 (Severe acute respiratory syndrome coronavirus 2)
Units of measure: %
perc_inhibition_mean: 0.764
//
Compound: CC1OCCC1(O)CNC(=O)c1ncnc2[nH]ccc12 (stereo not drawn)
Assayed system: SARS-CoV-2 nsp3-mac1 (Severe acute respiratory syndrome coronavirus 2)
Units of measure: %
perc_inhibition_mean: 1.864
//
Compound: CO[C@@]1(C(=O)O)CCN(C(=O)c2ncnc3[nH]ccc23)C1
Assayed system: SARS-CoV-2 nsp3-mac1 (Severe acute respiratory syndrome coronavirus 2)
Units of measure: %
perc_inhibition_mean: -4.181
//
Compound: O=C(NCc1nc(-c2ccco2)n[nH]1)c1cc2nccn2c(=O)[nH]1
Assayed system: SARS-CoV-2 nsp3-mac1 (Severe acute respiratory syndrome coronavirus 2)
Units of measure: %
perc_inhibition_mean: -5.425
//
Compound: Cc1ncc(NCc2cnc3c(c2)NC(=O)CO3)cc1Cl
Assayed system: SARS-CoV-2 nsp3-mac1 (Severe acute respiratory syndrome coronavirus 2)
Units of measure: %
perc_inhibition_mean: -0.368

Problem: Data request, read-out perc_inhibition_mean, for Cc1ccc(O)c(CNc2ncnc3[nH]cnc23)n1
Solution: 0.262

Problem: What do you get for c1ccc(-c2nc(CNc3cccnc3)cs2)nc1 ?
Solution: -9.865

Problem: What do you get for Brc1ccc(-n2nnnc2Sc2ncnc3[nH]ccc23)cc1 ?
Solution: 12.69

====

Test: Permeability Papp (AB) MDR1/MDCKII
Conditions: In vitro MDR1-MDCKII permeability, A to B, no inhibitor
Each entry below carries its recorded papp_a_to_b_mean.
Response body: numeric value in ×10⁻⁶ cm/s, unit text excluded.

Compound: CC(C)[C@H](Nc1ncnc2[nH]c(-c3cnn(CC(=O)N(C)C)c3)cc12)c1ccc2c(c1)OCCO2 (single isomer, unassigned) [ASAP-0013837]
papp_a_to_b_mean (×10⁻⁶ cm/s): 1.62
--
Compound: CCNC(=O)c1cc2c(N[C@H](c3ccc4c(c3)S(=O)(=O)CCC4)C(C)C)ncnc2[nH]1
papp_a_to_b_mean (×10⁻⁶ cm/s): 0.717

Problem: Data request, read-out papp_a_to_b_mean, for CC(C)[C@H](Nc1ncnc2[nH]c(-c3cnn(C)c3C#N)cc12)c1ccc2c(c1)NC(=O)CO2 (single isomer, unassigned)
Solution: 2.35

====

Each entry below carries its recorded t_half.
Assay: Hepatic microsomal stability, HLM
Type: in vitro ADME, human
Conditions: In vitro human liver microsomal stability
Response body: numeric value in min, unit text excluded.

Some molecules with known t_half results, for comparison:
Molecule: CC(C)C(Nc1ncnc2[nH]c(C(=O)NC3CCN(C)C3)cc12)c1ccc2c(c1)S(=O)(=O)CCC2 (stereo not drawn) [ASAP-0011198]
t_half (min): 83.8
--
Molecule: CNC(=O)c1cc2c(N[C@@H](c3ccc4c(c3)S(=O)(=O)CCC4)C(C)C)ncnc2[nH]1 [ASAP-0008685]
t_half (min): 21.7
--
Molecule: CC(C)[C@@H](Nc1ncnc2[nH]c(-c3ccc4nnn(C)c4c3)cc12)c1ccc2c(c1)S(=O)(=O)CCC2 [ASAP-0011201]
t_half (min): 2.2
--
Molecule: CC(C)(C)[C@H](Nc1ncnc2[nH]c(-c3cnn(CC(N)=O)c3)cc12)c1ccc2c(c1)OCCO2 (single isomer, unassigned) [ASAP-0012330]
t_half (min): 10.9
--
Molecule: CC(C)[C@H](Nc1ncnc2[nH]cc(C(=O)NC3CC3)c12)c1ccc2c(c1)S(=O)(=O)CCC2 (single isomer, unassigned) [ASAP-0011247]
t_half (min): 320.1

With those in mind, consider the next molecule.
Problem: Data request, read-out t_half, for CC(C)[C@H](CO)Nc1ncnc2[nH]ccc12 [ASAP-0000453]
Solution: 289.0

====

Experiment: Hepatic microsomal stability, HLM
Assay type: in vitro ADME, human
Details: In vitro human liver microsomal stability; no cofactor
Each entry below carries its recorded perc_remaining_no_cofactor.
Response body: numeric value in %, unit text excluded.

Some compounds with known perc_remaining_no_cofactor results, for comparison:
Compound: CNC(=O)c1c[nH]c2ncnc(N[C@@H](c3ccc4c(c3)OCCO4)C(C)C)c12
perc_remaining_no_cofactor [%]: 113.0
--
Compound: O=C(Nc1ccccc1)Nc1ccc(C(=O)NC2c3cccc(O)c3CC2C(=O)O)cc1 (centres unmarked)
perc_remaining_no_cofactor [%]: 96.0
--
Compound: Cn1ncc(-c2cc3c(N[C@@H](c4ccc5c(c4)OCCO5)C(C)(C)C)ncnc3[nH]2)c1C#N (racemic)
perc_remaining_no_cofactor [%]: 109.0
--
Compound: CC(C)[C@H](Nc1ncnc2[nH]c(-c3cnn(C)c3C#N)cc12)c1ccc2c(c1)NC(=O)CO2 (single isomer, unassigned) [ASAP-0013255]
perc_remaining_no_cofactor [%]: 101.0
--
Compound: CNC(=O)c1c[nH]c2ncnc(N[C@H](c3ccc4c(c3)S(=O)(=O)CCC4)C(C)C)c12 (single isomer, unassigned) [ASAP-0011153]
perc_remaining_no_cofactor [%]: 94.0
--
Compound: CC(C)[C@H](Nc1ncnc2[nH]c(-c3cnn(C)c3C#N)cc12)c1ccc2c(n1)OCCO2
perc_remaining_no_cofactor [%]: 116.0

Problem: Data request, read-out perc_remaining_no_cofactor, for CC(C)[C@@H](Nc1ncnc2[nH]c(-c3cnn(C)c3C#N)cc12)c1ccc2c(c1)OCCO2 (racemic) [ASAP-0008275]
Solution: 111.0

Problem: What do you get for CC(C)[C@@H](Nc1ncnc2[nH]c(-c3cnn(CC(=O)N(C)C)c3)cc12)c1ccc2c(c1)S(=O)(=O)CCC2 (racemic) [ASAP-0008668] ?
Solution: 92.0

Problem: What do you get for CC(C)[C@@H](Nc1ncnc2[nH]c(-c3cnn(CCC(N)=O)c3)cc12)c1ccc2c(c1)OCCO2 ?
Solution: 108.0

Problem: What do you get for CC(C)[C@H](Nc1ncnc2[nH]c(-c3cnn(CC(N)=O)c3)cc12)c1ccc2c(c1)S(=O)(=O)CCC2 (single isomer, unassigned) [ASAP-0011428] ?
Solution: 115.0

Problem: What do you get for COc1ccc([C@H](Cc2nnn[nH]2)NC(=O)c2ncnc3[nH]ccc23)cc1 ?
Solution: 84.68

====

Each entry below carries its recorded CC50.
System: HeLa-ACE2 cells
Conditions: protocol HeLa-ACE2 cytotoxicity

Some compounds with known CC50 results, for comparison:
Compound: CC(C)C(Nc1ncnc2[nH]c(C(=O)NC3CCN(C)C3)cc12)c1ccc2c(c1)S(=O)(=O)CCC2 (stereo not drawn)
Assayed system: HeLa-ACE2 cells
CC50: > 20 µM
//
Compound: CC(C)(C)[C@@H](Nc1ncnc2[nH]c(-c3cnn(CC(N)=O)c3)cc12)c1ccc2c(n1)OCCO2
Assayed system: HeLa-ACE2 cells
CC50: > 20 µM

Problem: Data request, read-out CC50, for CNC(=O)c1c[nH]c2ncnc(N[C@H](c3ccc4c(c3)S(=O)(=O)CCC4)C(C)C)c12 (single isomer, unassigned)
Solution: > 20 µM
